assay: in vivo; conditions: male, Sprague Dawley, rat, plasma, iv, 0.5 mg/kg
Below: a set of entries, each annotated with reported clearance.
observable: clearance

compound="CCN(CCNC(=O)c1cc(Cl)c(N)cc1OC)CCOCCOCCOCCOC [mPEG4-N-Metoclopramide]" result="133 mL/min/kg"
compound="CCN(CCNC(=O)c1cc(Cl)c(N)cc1OC)CCOC [mPEG1-N-Metoclopramide]" result="101 mL/min/kg"
compound="CCN(CCNC(=O)c1cc(Cl)c(N)cc1OC)CCOCCOCCOCCOCCOCCOCCOCCOC [mPEG8-N-Metoclopramide]" result="84.4 mL/min/kg"
compound="CCN(CC)CCNC(=O)c1cc(Cl)c(N)cc1OC [Metoclopramide, reference compound]" result="126 mL/min/kg"

---

Documented % of Total Metabolism, Rat Hep 4 hr across a set of compounds
system: Sprague-Dawley rat hepatocytes; assay: MetID determination in rat hepatocytes; type: in vitro ADME; conditions: incubation of 10 μM mPEG8-N-metoclopramide; parent and its metabolites M (FIG. 4)
observable: % of Total Metabolism, Rat Hep 4 hr (%)

compound=CCN(CCNC(=O)c1cc(Cl)c(N)cc1OC)CCOCCOCCOCCOCCOCCO test_system="Sprague-Dawley rat hepatocytes" quantitative_readout=1
compound="CCN(CCNC(=O)c1cc(Cl)c(N)cc1OC)CCOCCOCCOCCO [M13]" test_system="Sprague-Dawley rat hepatocytes" quantitative_readout=12.6
compound="CCN(CCO)CCNC(=O)c1cc(Cl)c(N)cc1OC [M6]" test_system="Sprague-Dawley rat hepatocytes" quantitative_readout=2.2
compound="CCN(CCNC(=O)c1cc(Cl)c(N)cc1OC)CCOCCO [M11]" test_system="Sprague-Dawley rat hepatocytes" quantitative_readout=3.5
compound="CCN(CCNC(=O)c1cc(Cl)c(N)cc1OC)CCOCCOCCOCCO [M9]" test_system="Sprague-Dawley rat hepatocytes" quantitative_readout=1.6
compound="CCN(CCNC(=O)c1cc(Cl)c(N)cc1OC)CCOCCOCCO [M12]" test_system="Sprague-Dawley rat hepatocytes" quantitative_readout=0.7
compound=CCN(CCNC(=O)c1cc(Cl)c(N)cc1OC)CCOCCOCCOCCOCCO test_system="Sprague-Dawley rat hepatocytes" quantitative_readout=2
compound="CCN(CCNC(=O)c1cc(Cl)c(N)cc1OC)CCOCCO [M7]" test_system="Sprague-Dawley rat hepatocytes" quantitative_readout=2.2
compound="CCN(CCNC(=O)c1cc(Cl)c(N)cc1OC)CCOCCOCCO [M8]" test_system="Sprague-Dawley rat hepatocytes" quantitative_readout=2.5
compound="CCN(CCNC(=O)c1cc(Cl)c(N)cc1OC)CCOCCOCCOCCOCCOCCOCCOCCOC [mPEG8-N-Metoclopramide]" test_system="Sprague-Dawley rat hepatocytes" quantitative_readout=43.5

---

tested on: Sprague-Dawley rat hepatocytes; experiment: MetID determination in rat hepatocytes; assay type: in vitro ADME; conditions: incubation of 10 μM mPEG8-N-metoclopramide; parent and its metabolites M (FIG. 4)
observable: % of Total Metabolism, Rat Hep 1 hr

compound="CCN(CCNC(=O)c1cc(Cl)c(N)cc1OC)CCOCCOCCO [M12]" test_system="Sprague-Dawley rat hepatocytes" observable="% of Total Metabolism, Rat Hep 1 hr" result=Trace
compound=CCN(CCNC(=O)c1cc(Cl)c(N)cc1OC)CCOCCOCCOCCOCCO test_system="Sprague-Dawley rat hepatocytes" observable="% of Total Metabolism, Rat Hep 1 hr" result=Trace
compound="CCN(CCNC(=O)c1cc(Cl)c(N)cc1OC)CCOCCOCCOCCO [M9]" test_system="Sprague-Dawley rat hepatocytes" observable="% of Total Metabolism, Rat Hep 1 hr" result=Trace
compound=CCN(CCNC(=O)c1cc(Cl)c(N)cc1OC)CCOCCOCCOCCOCCOCCOCCOCCO test_system="Sprague-Dawley rat hepatocytes" observable="% of Total Metabolism, Rat Hep 1 hr" result=trace
compound=CCN(CCNC(=O)c1cc(Cl)c(N)cc1OC)CCOCCOCCOCCOCCOCCO test_system="Sprague-Dawley rat hepatocytes" observable="% of Total Metabolism, Rat Hep 1 hr" result=Trace
compound=CCN(CCNC(=O)c1cc(Cl)c(N)cc1OC)CCOCCOCCOCCOCCOCCOCCO test_system="Sprague-Dawley rat hepatocytes" observable="% of Total Metabolism, Rat Hep 1 hr" result=trace
compound="CCN(CCNC(=O)c1cc(Cl)c(N)cc1OC)CCOCCO [M11]" test_system="Sprague-Dawley rat hepatocytes" observable="% of Total Metabolism, Rat Hep 1 hr" result=Trace

---

target: 5HT4B receptors (serotonin 4B receptors) (Homo sapiens); construct: expressed in transfected cells; experiment: Competition binding assay (serotonin 4B receptors), [3H]GR113808; details: IC50 relative to metoclopramide, 5HT4B binding
Sequence (Q13639 whole entry): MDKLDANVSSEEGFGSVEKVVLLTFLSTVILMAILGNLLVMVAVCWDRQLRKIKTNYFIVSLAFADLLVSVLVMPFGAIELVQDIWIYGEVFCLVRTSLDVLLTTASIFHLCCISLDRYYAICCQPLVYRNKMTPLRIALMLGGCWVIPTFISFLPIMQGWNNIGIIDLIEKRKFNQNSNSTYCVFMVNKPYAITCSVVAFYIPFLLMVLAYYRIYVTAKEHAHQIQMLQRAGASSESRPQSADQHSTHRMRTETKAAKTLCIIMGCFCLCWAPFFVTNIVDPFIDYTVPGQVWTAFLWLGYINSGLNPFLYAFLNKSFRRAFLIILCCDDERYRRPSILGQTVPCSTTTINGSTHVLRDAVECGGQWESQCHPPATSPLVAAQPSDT
observable: Fold-change Relative to Parent

compound="CCN(CCNC(=O)c1cc(Cl)c(N)cc1OC)CCOC [mPEG1-N-Metoclopramide]" test_system="5HT4B receptors (serotonin 4B receptors) (Homo sapiens)" observable="Fold-change Relative to Parent" quantitative_readout=1.3
compound="CCN(CCNC(=O)c1cc(Cl)c(N)cc1OC)CCOCCOC [mPEG2-N-Metoclopramide]" test_system="5HT4B receptors (serotonin 4B receptors) (Homo sapiens)" observable="Fold-change Relative to Parent" quantitative_readout=2.0
compound="CCN(CCNC(=O)c1cc(Cl)c(N)cc1OC)CCOCCOCCOCCOCCOCCOCCOCCOC [mPEG8-N-Metoclopramide]" test_system="5HT4B receptors (serotonin 4B receptors) (Homo sapiens)" observable="Fold-change Relative to Parent" quantitative_readout=11.9
compound="CCN(CCNC(=O)c1cc(Cl)c(N)cc1OC)CCOCCOCCOCCOCCOCCOC [mPEG6-N-Metoclopramide]" test_system="5HT4B receptors (serotonin 4B receptors) (Homo sapiens)" observable="Fold-change Relative to Parent" quantitative_readout=3.8

---

system: human hepatocytes; experiment: MetID determination in human hepatocytes; type: in vitro ADME; conditions: incubation of 10 μM mPEG8-N-metoclopramide; parent and its metabolites M (FIG. 4)
observable: % of Total Metabolism, Human Hep 4 hr

molecule=CCN(CCNC(=O)c1cc(Cl)c(N)cc1OC)CCOCCO result=trace
molecule="CCN(CCNC(=O)c1cc(Cl)c(N)cc1OC)CCOCCOCCOCCO [M9]" result=trace
molecule=CCN(CCNC(=O)c1cc(Cl)c(N)cc1OC)CCOCCOCCOCCOCCOCCOCCO result=trace

---

test system: Sprague-Dawley rat hepatocytes; assay: MetID determination in rat hepatocytes; type: in vitro ADME; settings: incubation of 10 μM mPEG8-N-metoclopramide; parent and its metabolites M (FIG. 4)
observable: % of Total Metabolism, Rat Hep 4 hr

compound="CCN(CCO)CCNC(=O)c1cc(Cl)c(N)cc1OC [M10]" observable="% of Total Metabolism, Rat Hep 4 hr" result=trace
compound="CCN(CCNC(=O)c1cc(Cl)c(N)cc1OC)CCOCCOCCOCCOCCOCCOCCOCCO [M17]" observable="% of Total Metabolism, Rat Hep 4 hr" result=trace
compound="CCN(CCNC(=O)c1cc(Cl)c(N)cc1OC)CCOCCOCCOCCOCCOCCOCCO [M16]" observable="% of Total Metabolism, Rat Hep 4 hr" result=trace
